Measured values drawn from patent US20260109732A1 for this set.

- Tested on: HeLa cells
- run.description: Luciferase Protein Expression Assay in HeLa Cells
- Assay type: cell-based, Human
- run.conditions: LNPs encapsulating Luciferase mRNA, 25 ng per well, N=4 wells; 5 h serum-free then 24 h; ONE-Glo
Where a name gives a salt, the structure may show the parent alone.
endpoint.label: Average Relative Light Units ± Standard Deviation (Relative Light Units)
Quick note: give the figure in Relative Light Units, leave out the unit.

Example entries begin here.
[[record]]
compound = "CC(C)CCC[C@@H](C)[C@H]1CC[C@H]2[C@@H]3CC=C4C[C@@H](OC(=O)CCC(=O)N(CCCC(C)(C)N)CCC(C)(C)N)CC[C@]4(C)[C@H]3CC[C@]12C [SA166, dihydrochloride]"
endpoint_unit = "Relative Light Units"
readout_value = 33377.3

[[record]]
compound = "CCC(N)(CC)CCNCCCCN(CCC(N)(CC)CC)C(=O)CCSS[C@H]1CC[C@@]2(C)C(=CC[C@H]3[C@@H]4CC[C@H]([C@H](C)CCCC(C)C)[C@@]4(C)CC[C@@H]32)C1 [SA184, trihydrochloride]"
endpoint_unit = "Relative Light Units"
readout_value = 26222.4

[[record]]
compound = "CC(C)CCC[C@@H](C)[C@H]1CC[C@H]2[C@@H]3CC=C4C[C@@H](OC(=O)[C@H](CCCN)NCCCCCCN)CC[C@]4(C)[C@H]3CC[C@]12C.Cl.Cl.Cl"
endpoint_unit = "Relative Light Units"
readout_value = 131.6

[[record]]
compound = "CC(C)CCC[C@@H](C)[C@H]1CC[C@H]2[C@@H]3CC=C4C[C@@H](OC(=O)N(CCCCNCC(C)CN)CC(C)CN)CC[C@]4(C)[C@H]3CC[C@]12C (some centres unmarked) [SA75, trihydrochloride]"
endpoint_unit = "Relative Light Units"
readout_value = 37732.4


Please turn your attention to the following entry.
Average Relative Light Units ± Standard Deviation in this record for CC(C)CCC[C@@H](C)[C@H]1CC[C@H]2[C@@H]3CC=C4C[C@@H](OC(=O)CCC(=O)N(CCCCCCCC(C)N)CCC(C)N)CC[C@]4(C)[C@H]3CC[C@]12C (some centres unmarked) [SA162, dihydrochloride] : 34454.6

###

- run.description: Diameter and PDI from DLS measurements of mRNA nanoparticles with lipid amines
- Format: physicochemical
- run.conditions: Luciferase mRNA nanoparticle modified with lipid amine
Where a name gives a salt, the structure may show the parent alone.
endpoint.label: Diameter (nm)
Please report the result as a number followed by the unit.

Check out these entries, answers already filled in.
[[record]]
compound = "CC(C)CCC[C@@H](C)[C@H]1CC[C@H]2[C@@H]3CC=C4C[C@@H](SSCCC(=O)N(CCCC(C)(C)N)CCC(C)(C)N)CC[C@]4(C)[C@H]3CC[C@]12C [SA145, dihydrochloride]"
endpoint_label = "Diameter (nm)"
readout_value = "77 nm"

[[record]]
compound = "CC(C)CCC[C@@H](C)[C@H]1CC[C@H]2[C@@H]3CC=C4C[C@@H](OC(=O)N(CCCCNCC(C)(C)CN)CC(C)(C)CN)CC[C@]4(C)[C@H]3CC[C@]12C [SA77, trihydrochloride]"
endpoint_label = "Diameter (nm)"
readout_value = "74 nm"

[[record]]
compound = "CC[C@H](CC[C@@H](C)[C@H]1CC[C@H]2[C@@H]3CC=C4C[C@@H](OC(=O)N(CCCCCCN)CCCCCCN)CC[C@]4(C)[C@H]3CC[C@]12C)C(C)C [SA82, dihydrochloride]"
endpoint_label = "Diameter (nm)"
readout_value = "73 nm"

[[record]]
compound = "CC[C@H](CC[C@@H](C)[C@H]1CC[C@H]2[C@@H]3CC=C4C[C@@H](SSCCC(=O)N(CCCCNCCC(N)(CC)CC)CCC(N)(CC)CC)CC[C@]4(C)[C@H]3CC[C@]12C)C(C)C [SA181, trihydrochloride]"
endpoint_label = "Diameter (nm)"
readout_value = "74 nm"

[[record]]
compound = "CC(C)CCC[C@@H](C)[C@H]1CC[C@H]2[C@@H]3CC=C4C[C@@H](OC(=O)CSSCC(=O)N(CCCN)CCCCNCCCN)CC[C@]4(C)[C@H]3CC[C@]12C [SA98, trihydrochloride]"
endpoint_label = "Diameter (nm)"
readout_value = "70 nm"

[[record]]
compound = "CC(C)CCC[C@@H](C)[C@H]1CC[C@H]2[C@@H]3CC=C4C[C@@H](OC(=O)CN(CCCCCCCCN)C(=O)CCCCCN)CC[C@]4(C)[C@H]3CC[C@]12C [SA123, dihydrochloride]"
endpoint_label = "Diameter (nm)"
readout_value = "73 nm"

[[record]]
compound = "CC(C)CCC[C@@H](C)[C@H]1CC[C@H]2[C@@H]3CC=C4C[C@@H](SSCCC(=O)N(CCC(C)N)CCC(C)N)CC[C@]4(C)[C@H]3CC[C@]12C (stereo partly drawn) [SA173, dihydrochloride]"
endpoint_label = "Diameter (nm)"
readout_value = "73 nm"

[[record]]
compound = "CC[C@H](CC[C@@H](C)[C@H]1CC[C@H]2[C@@H]3CC=C4C[C@@H](OC(=O)N(CCCCNC)CCCNC)CC[C@]4(C)[C@H]3CC[C@]12C)C(C)C [SA180, dihydrochloride]"
endpoint_label = "Diameter (nm)"
readout_value = "76 nm"


The record that follows has no Diameter (nm) shown yet.
The compound CC(C)CCC[C@@H](C)[C@H]1CC[C@H]2[C@@H]3CC=C4C[C@@H](OC(=O)N(CCCC(C)(C)N)CCC(C)(C)N)CC[C@]4(C)[C@H]3CC[C@]12C [SA157, dihydrochloride] showed Diameter (nm) equal to 75 nm

###

- run.description: Diameter and PDI from DLS measurements of mRNA nanoparticles with lipid amines
- Assay type: physicochemical
- run.conditions: CFTR mRNA nanoparticle with lipid amine
Where a name gives a salt, the structure may show the parent alone.
endpoint.label: PDI

[[record]]
compound = "CCC(N)(CC)CCNCCCCN(CCC(N)(CC)CC)C(=O)CCCC(=O)O[C@H]1CC[C@@]2(C)C(=CC[C@H]3[C@@H]4CC[C@H]([C@H](C)CCCC(C)C)[C@@]4(C)CC[C@@H]32)C1 [SA185, trihydrochloride]"
readout_value = 0.16

[[record]]
compound = "CC[C@H](CC[C@@H](C)[C@H]1CC[C@H]2[C@@H]3CC=C4C[C@@H](OC(=O)N(CCCCNCCC(C)(C)N)CCC(C)(C)N)CC[C@]4(C)[C@H]3CC[C@]12C)C(C)C [SA114, trihydrochloride]"
readout_value = 0.13


Kindly review the next compound as well.
Measured PDI of CC[C@H](CC[C@@H](C)[C@H]1CC[C@H]2[C@@H]3CC=C4C[C@@H](OC(=O)CCC(=O)N(CCCCCCCC(C)N)CCC(C)N)CC[C@]4(C)[C@H]3CC[C@]12C)C(C)C (stereo partly drawn) [SA163, dihydrochloride] : 0.09

###

- run.description: Encapsulation of mRNA nanoparticles with lipid amines using Ribogreen assay
- Type: physicochemical
- run.conditions: CFTR mRNA nanoparticle with lipid amine
Counter-ions that a name gives are not always drawn.
endpoint.label: % Encapsulation (Ribogreen) (%)
Report only the number, with the unit % understood.

[[record]]
molecule = "CC[C@H](CC[C@@H](C)[C@H]1CC[C@H]2[C@@H]3CC=C4C[C@@H](OC(=O)N(CCCCNCCC(N)(CC)CC)CCC(N)(CC)CC)CC[C@]4(C)[C@H]3CC[C@]12C)C(C)C [SA183, trihydrochloride]"
readout_value = 99.0

[[record]]
molecule = "CC[C@H](CC[C@@H](C)[C@H]1CC[C@H]2[C@@H]3CC=C4C[C@@H](OC(=O)CCC(=O)N(CCC(C)N)CCC(C)N)CC[C@]4(C)[C@H]3CC[C@]12C)C(C)C (stereo partly shown) [SA168, dihydrochloride]"
readout_value = 99.3

[[record]]
molecule = "CC[C@H](CC[C@@H](C)[C@H]1CC[C@H]2[C@@H]3CC=C4C[C@@H](OC(=O)N(CCCCCCN)CCCCCCN)CC[C@]4(C)[C@H]3CC[C@]12C)C(C)C [SA82, dihydrochloride]"
readout_value = 99.4


CC(C)CCC[C@@H](C)[C@H]1CC[C@H]2[C@@H]3CC=C4C[C@@H](OC(=O)CCC(=O)N(CCCN)CCCCCCCCN)CC[C@]4(C)[C@H]3CC[C@]12C [SA72, dihydrochloride] yielded % Encapsulation (Ribogreen) of 99.8

###

- run.description: Diameter and PDI from DLS measurements of mRNA nanoparticles with lipid amines
- Type: physicochemical
- run.conditions: Luciferase mRNA nanoparticle modified with lipid amine
Counter-ions that a name gives are not always drawn.
Diameter (nm) for assorted compounds

Some solved cases for reference:
[[record]]
compound = "CC[C@H](CC[C@@H](C)[C@H]1CC[C@H]2[C@@H]3CC=C4C[C@@H](OC(=O)CN(CCCN)CCCCNCCCN)CC[C@]4(C)[C@H]3CC[C@]12C)C(C)C"
readout_value = "78 nm"

[[record]]
compound = "CC(C)CCC[C@@H](C)[C@H]1CC[C@H]2[C@@H]3CC=C4C[C@@H](OC(=O)C(C)C(=O)N(CCCN)CCCCNCCCN)CC[C@]4(C)[C@H]3CC[C@]12C.Cl.Cl.Cl (stereo partly drawn)"
readout_value = "78 nm"

[[record]]
compound = "CC(C)CCC[C@@H](C)[C@H]1CC[C@H]2[C@@H]3CC=C4C[C@@H](OC(=O)[C@H](CCCN)NCCCCCCN)CC[C@]4(C)[C@H]3CC[C@]12C.Cl.Cl.Cl"
readout_value = "81 nm"

[[record]]
compound = "CC(C)CCC[C@@H](C)[C@H]1CC[C@H]2[C@@H]3CC=C4C[C@@H](OC(=O)N(CCCCNCC(F)(F)CN)CC(F)(F)CN)CC[C@]4(C)[C@H]3CC[C@]12C [SA79, trihydrochloride]"
readout_value = "74 nm"

[[record]]
compound = "CC(C)CCC[C@@H](C)[C@H]1CC[C@H]2[C@@H]3CC=C4C[C@@H](OC(=O)CCC(=O)N(CCCN)CCCCCCCCN)CC[C@]4(C)[C@H]3CC[C@]12C [SA72, dihydrochloride]"
readout_value = "72 nm"


# evaluate next
Reported Diameter (nm) of CC(C)CCC[C@@H](C)[C@H]1CC[C@H]2[C@@H]3CC=C4C[C@@H](OC(=O)CCC(=O)N(CCCCCCCC(C)N)CCC(C)N)CC[C@]4(C)[C@H]3CC[C@]12C (stereo partly drawn) [SA162, dihydrochloride] : 75 nm
